Data origin, for the record: patent US20250066499A1

Target: T1, human CD73-His protein (human, UniProt P21589 27-549)
T1 sequence: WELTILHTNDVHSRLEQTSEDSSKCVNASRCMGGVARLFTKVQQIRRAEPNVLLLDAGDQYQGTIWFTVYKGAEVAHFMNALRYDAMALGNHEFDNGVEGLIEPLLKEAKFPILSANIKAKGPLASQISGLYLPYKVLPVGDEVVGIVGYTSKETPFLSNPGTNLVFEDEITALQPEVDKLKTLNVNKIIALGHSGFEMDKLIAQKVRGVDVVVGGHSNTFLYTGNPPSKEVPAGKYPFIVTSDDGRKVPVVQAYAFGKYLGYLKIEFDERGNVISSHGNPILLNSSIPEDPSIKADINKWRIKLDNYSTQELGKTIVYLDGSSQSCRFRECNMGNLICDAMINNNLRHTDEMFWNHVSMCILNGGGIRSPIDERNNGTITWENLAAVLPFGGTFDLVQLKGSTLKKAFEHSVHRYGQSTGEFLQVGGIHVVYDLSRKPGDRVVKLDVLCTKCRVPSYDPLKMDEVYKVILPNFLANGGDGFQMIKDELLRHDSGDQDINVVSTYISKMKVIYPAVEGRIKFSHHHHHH
Assay: cell-based or functional assay
Assay metric: IC50 (nM), inhibition of enzyme activity of soluble CD73-His (AMP/ATP, Cell Titer-Glo)
Field format: number, assumed nM, no unit text.

Prompt: Using known records, supply IC50 (nM), inhibition of enzyme activity of soluble CD73-His (AMP/ATP, Cell Titer-Glo) for 56B10-HuV31 (antibody, human IgG4, V domains shown, Humanized) VH: QVQLQQSGAEVKKPGASVKVSCKASGYTFTRYYIYWVRQRPGQGLEWIGWIYPGNFNTKYNEKFKGRATLTADTSASTAYMELSSLTSEDTAVYYCARDVYDYAGFAYWGQGTLVTVSS VL: DIQLTQSPSFLSASVGDRVTITCKASQGVATAVAWYQQKPGQSPKLLIYWASTRHTGVPDRFSGSGSGTEFTLTISSLQPEDFATYYCQQYSSYPWTFGQGTKVEIK
Completion: 3.66

Prompt: State its IC50 (nM), inhibition of enzyme activity of soluble CD73-His (AMP/ATP, Cell Titer-Glo): 48A11-HuV22 (antibody, human IgG4, V domains shown, Humanized) VH: QVQLVQSGAEVKKPGASVKVSCKASGYTFTSYWMHWVRQAPGQGLEWIGEINPSIGRTNYNEKFKSRATLTVDKSTSTAYMELSSLRSEDTAVYYCARRVYGTMDYWGQGTLVTVSS VL: DIQMTQSPSSLSASVGDRVTITCKASQDINSYLSWFQQKPGKSPKTLIYRANIWVDGVPSRFSGSGSGQDYTFTISSLQPEDIATYYCLQYDELYTFGQGTKVEIK
Completion: 9.02

Prompt: Fill in reported IC50 (nM), inhibition of enzyme activity of soluble CD73-His (AMP/ATP, Cell Titer-Glo) for this entry: 48A11-HuV33 (antibody, human IgG4, V domains shown, Humanized) VH: QVQLVQSGAEVKKPGASVKVSCKASGYTFTSYWMHWVRQAPGQGLEWIGEINPSIGRTNYNEKFKSRVTLTRDTSTSTAYMELSSLRSEDTAVYYCARRVYGTMDYWGQGTLVTVSS VL: DIQMTQSPSSLSASVGDRVTITCKASQDINSYLSWFQQKPGKSPKLLIYRANIWVDGVPSRFSGSGSGQDYTFTISSLQPEDIATYYCLQYDELYTFGQGTKVEIK
Completion: 4.27
